Source listed as paper PMC3962796.

- Assay type: in vivo, male Sprague-Dawley rats
- Test parameters: male, Sprague-Dawley, rat, lung, inhaled or intranasal, 1.8 ug
Reported endpoint: half-life (min)

molecule="Clc1cccc(-c2cccc(Cl)c2)c1 [CB11, 3,3′-dichlorobiphenyl]" readout_units=min numeric_result=114

---

- Type: in vivo, male Sprague-Dawley rats
- Test parameters: male, Sprague-Dawley, rat, liver, inhaled or intranasal, 1.8 ug
Reported endpoint: half-life (h)

compound="Clc1cccc(-c2cccc(Cl)c2)c1 [CB11, 3,3′-dichlorobiphenyl]" numeric_result=2.1
